Biological target: Von Hippel-Lindau disease tumor suppressor/Elongin B/Elongin C (Homo sapiens, UniProt P40337)
measured-endpoint: Kd (nM)

smiles-code: CC(=O)C1(C(=O)N[C@H](C(=O)N2C[C@H](O)C[C@H]2C(=O)NCc2ccc(-c3scnc3C)cc2)C(C)(C)C)CC1
measured-endpoint: Kd
val: 97
//
smiles-code: Cc1ncsc1-c1ccc(CNC(=O)[C@@H]2C[C@@H](O)CN2C(=O)[C@@H](NC(=O)C2CCC2)C(C)(C)C)cc1
measured-endpoint: Kd
val: 233

----------
Entries and their measured Kd follow.
Molecular target: Von Hippel-Lindau disease tumor suppressor/Elongin B/Elongin C (Homo sapiens, UniProt P40337)

smiles-code: CC(=O)C1(C(=O)N[C@H](C(=O)N2C[C@H](O)C[C@H]2C(=O)NCc2ccc(-c3scnc3C)cc2)C(C)(C)C)CC1
Kd [nM]: 115

smiles-code: Cc1ncsc1-c1ccc(CNC(=O)[C@@H]2C[C@@H](O)CN2C(=O)[C@@H](NC(=O)C2CCC2)C(C)(C)C)cc1
Kd [nM]: 271

----------
Entries and their measured Activity follow.
Biological target: Von Hippel-Lindau disease tumor suppressor/Elongin B/Elongin C (Homo sapiens) (UniProt P40337+Q15370+Q15369)
Sequence (P40337 whole entry, looked up): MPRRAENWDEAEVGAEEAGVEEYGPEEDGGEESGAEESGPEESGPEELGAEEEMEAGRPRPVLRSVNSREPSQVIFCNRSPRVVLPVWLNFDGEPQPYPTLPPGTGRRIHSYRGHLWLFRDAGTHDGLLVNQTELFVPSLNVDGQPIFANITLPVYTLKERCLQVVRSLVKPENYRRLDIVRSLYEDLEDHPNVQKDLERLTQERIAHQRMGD
Sequence (Q15369 whole entry, looked up): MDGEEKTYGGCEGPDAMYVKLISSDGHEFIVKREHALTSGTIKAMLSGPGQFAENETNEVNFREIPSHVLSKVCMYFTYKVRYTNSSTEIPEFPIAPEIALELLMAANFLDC
Sequence (Q15370 whole entry, looked up): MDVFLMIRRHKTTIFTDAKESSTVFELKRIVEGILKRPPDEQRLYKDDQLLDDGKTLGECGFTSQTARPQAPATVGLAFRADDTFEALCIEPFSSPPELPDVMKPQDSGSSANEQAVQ
Assay: Inhibition of VBC in human HeLa cells assessed as HIF-1alpha stabilization by measuring HIF-1alpha protein levels at 50 uM after 2 hrs by Western blot analysis
Type: cell-based
Parameters: scale not given: the % may be the effect or the level left
measured-endpoint: Activity (%)

smiles-code: Cc1ncsc1-c1ccc(CNC(=O)[C@@H]2C[C@@H](O)CN2C(=O)[C@@H](NC(=O)CC(C)(C)C)C(C)(C)C)cc1
measured-endpoint: Activity
val: 65
//
smiles-code: Cc1ncsc1-c1ccc(CNC(=O)[C@@H]2C[C@@H](O)CN2C(=O)[C@@H](NC(=O)C2CC2)C(C)(C)C)cc1
measured-endpoint: Activity
val: 105
//
smiles-code: Cc1ncsc1-c1ccc(CNC(=O)[C@@H]2C[C@@H](O)CN2C(=O)[C@@H](NC(=O)OC(C)(C)C)C(C)(C)C)cc1
measured-endpoint: Activity
val: 12
//
smiles-code: Cc1ncsc1-c1ccc(CNC(=O)[C@@H]2C[C@@H](O)CN2C(=O)[C@@H](NC(=O)C2CCC2)C(C)(C)C)cc1
measured-endpoint: Activity
val: 138

----------
Target: Von Hippel-Lindau disease tumor suppressor/Elongin B/Elongin C (Homo sapiens)
Assay: Displacement of FAM-labeled HIF-1alpha peptide from VBC (unknown origin) by fluorescence polarization assay
Please respond with yes (1) when measured Kd is strictly beneath 0.4 µM, and with no (0) in all other cases.

molecule: Cc1ncsc1-c1ccc(CNC(=O)[C@@H]2C[C@@H](O)CN2C(=O)[C@@H](N2CCCC2=O)C(C)(C)C)cc1
assigned-class: no (0)
--
molecule: Cc1ncsc1-c1ccc(CNC(=O)[C@@H]2C[C@@H](O)CN2C(=O)[C@@H](NC(=O)C2COC2)C(C)(C)C)cc1
assigned-class: yes (1)
--
molecule: Cc1ncsc1-c1ccc(CNC(=O)[C@@H]2C[C@@H](O)CN2C(=O)[C@@H](NC(=O)C2(F)CC2)C(C)O)cc1 (single isomer, unassigned)
assigned-class: yes (1)
--
molecule: Cc1ncsc1-c1ccc(CNC(=O)[C@@H]2C[C@@H](O)CN2C(=O)[C@@H](NC(=O)CC(C)(C)C)C(C)(C)C)cc1
assigned-class: no (0)
--
molecule: Cc1ncsc1-c1ccc(CNC(=O)[C@@H]2C[C@@H](O)CN2C(=O)[C@@H](NC(=O)C(C)(C)F)C(C)(C)C)cc1
assigned-class: no (0)
--
molecule: Cc1ncsc1-c1ccc(CNC(=O)[C@@H]2C[C@@H](O)CN2C(=O)[C@@H](NC(=O)CO)C(C)(C)C)cc1
assigned-class: yes (1)
--
molecule: Cc1ncsc1-c1ccc(CNC(=O)[C@@H]2C[C@@H](O)CN2C(=O)[C@@H](NC(=O)C(F)(F)F)C(C)(C)C)cc1
assigned-class: yes (1)
